assay_procedure: Pharmacokinetic study of DPTM in rats after i.v., i.m. and p.o. administration (HPLC-MS/MS, non-compartmental)
Assay type: in vivo
run_parameters: Sprague-Dawley, plasma, po; rat, p.o., 10 mg/kg; read-out: F, absolute bioavailability
Procedure: After administration of three i.v., i.m. and p.o. dose (10, 25 and 75 mg/kg) of DPTM to rats, the pharmacokinetic profiles of DPTM were quantified by the validated HPLC-MS/MS methods. […] Pharmacokinetic parameters, including maximum plasma concentration (Cmax), time (Tmax), area under the plasma concentration versus time curve from zero to last sampling time (AUC0−t) and elimination half-life (t1/2) were calculated using WinNonlin software (version 2.1, Pharsight, Mountain View, CA, USA). […]
reported_metric: bioavailability (%)
Report only the number, with the unit % understood.

*Q* Data request, read-out bioavailability, for C=CC1(C)CC(OC(=O)CSc2nc(N)cc(N)n2)C2(C)C(C)CCC3(CCC(=O)C32)C(C)C1O (stereo not shown) [DPTM]
*A* 22.9
